Quick reference for pIC50 among some molecules
Target: cAMP and cAMP-inhibited cGMP 3',5'-cyclic phosphodiesterase 10A (Homo sapiens)
Sequence (Q9Y233 whole entry): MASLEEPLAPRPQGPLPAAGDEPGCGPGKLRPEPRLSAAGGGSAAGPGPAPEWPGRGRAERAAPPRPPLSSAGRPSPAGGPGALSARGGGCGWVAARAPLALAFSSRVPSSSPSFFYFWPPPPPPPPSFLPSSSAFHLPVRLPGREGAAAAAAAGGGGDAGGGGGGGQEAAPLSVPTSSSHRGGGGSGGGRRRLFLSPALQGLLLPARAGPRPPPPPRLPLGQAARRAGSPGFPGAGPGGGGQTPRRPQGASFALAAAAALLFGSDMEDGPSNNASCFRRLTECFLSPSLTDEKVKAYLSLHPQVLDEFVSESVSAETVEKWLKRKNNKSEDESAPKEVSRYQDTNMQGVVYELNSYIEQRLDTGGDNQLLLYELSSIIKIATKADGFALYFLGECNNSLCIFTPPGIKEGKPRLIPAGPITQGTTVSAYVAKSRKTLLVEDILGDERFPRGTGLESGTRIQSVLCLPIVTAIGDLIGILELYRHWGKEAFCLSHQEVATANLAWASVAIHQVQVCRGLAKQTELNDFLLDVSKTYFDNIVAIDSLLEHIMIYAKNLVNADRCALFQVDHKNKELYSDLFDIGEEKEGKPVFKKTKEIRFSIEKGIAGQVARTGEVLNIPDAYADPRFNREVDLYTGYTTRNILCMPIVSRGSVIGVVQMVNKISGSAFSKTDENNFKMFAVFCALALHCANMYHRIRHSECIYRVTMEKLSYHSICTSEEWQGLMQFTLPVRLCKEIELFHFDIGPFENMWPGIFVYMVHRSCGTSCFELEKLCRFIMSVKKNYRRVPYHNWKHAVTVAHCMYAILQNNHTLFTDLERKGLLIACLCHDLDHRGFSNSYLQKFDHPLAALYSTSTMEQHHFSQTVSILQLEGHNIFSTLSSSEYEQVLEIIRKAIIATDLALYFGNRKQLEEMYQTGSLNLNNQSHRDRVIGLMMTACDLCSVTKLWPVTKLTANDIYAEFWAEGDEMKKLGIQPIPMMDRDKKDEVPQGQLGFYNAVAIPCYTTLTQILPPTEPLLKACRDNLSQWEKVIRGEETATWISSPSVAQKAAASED
pIC50: −log10 of the molar value.

The following molecules have reported results that may help.
CN1CCc2c(sc3c2c2ncnn2c(=O)n3Cc2ccc(Cl)cc2)C1 | < 5.00
CCOC(=O)C1=C[C@]2(CC)CCCN3CCc4c(n1c1ccccc41)[C@@H]32 | < 5.00
O=c1n(Cc2ccc(Cl)cc2)c2sc3c(c2c2ncnn12)CCCC3 | 5.40 to 5.46

pIC50 lookup needed for CN1C(=O)c2c(nc(Cc3ccc(-c4ccccc4)cc3)n2Cc2ccccc2)N2CC3(CCCC3)N=C12 , thanks.
< 5.00

This collection of values is drawn from ChEMBL document CHEMBL4007512.
